Assay: yeast display, Sf9 membrane polyspecificity reagent, FACS + sequencing; frameworks hold sequencing errors
PARAMETER MEASURED: polyreactivity (PSR sort gate)

Endpoint output: polyreactivity (PSR sort gate) of QVQLVESGGGLVQAGGSLRLSCAASGRIFKQYALGWYRQAPGKERELVAAISVRGGITYYADSVKGRFTISRDNAKNTVYLQMNSLKPEDTAVYYCAKRSYRTHTYDYWGQGTQVTVSS . Value?
low polyreactivity

Endpoint output: polyreactivity (PSR sort gate) of QVQLVESGGGLVQAAGSLRVSCAASGSIFYSNVMGWYRTEPGKERELVARISDAGSTNYADSVKGRFTISRDNAKNTVYLQMNSLKPEDTAVYYCNARLVIYTYDYWGQGTQVTVSS . Value?
low polyreactivity

Endpoint output: polyreactivity (PSR sort gate) of QVQLVESGGGLVQAGGSLRLSCAASGRTLTQNAMGWYRQAPGKERELVATISWTAGSTYYADSVKGRFTISRDNAKNTVYLQMNSLKPEDTAVYYCAAVVFYSIYDYWGQGTQVTVSS . Value?
low polyreactivity
